# Target entity: T1, CD73 on the surface of human tumor cells (human, UniProt P21589 27-549)
# T1 chain: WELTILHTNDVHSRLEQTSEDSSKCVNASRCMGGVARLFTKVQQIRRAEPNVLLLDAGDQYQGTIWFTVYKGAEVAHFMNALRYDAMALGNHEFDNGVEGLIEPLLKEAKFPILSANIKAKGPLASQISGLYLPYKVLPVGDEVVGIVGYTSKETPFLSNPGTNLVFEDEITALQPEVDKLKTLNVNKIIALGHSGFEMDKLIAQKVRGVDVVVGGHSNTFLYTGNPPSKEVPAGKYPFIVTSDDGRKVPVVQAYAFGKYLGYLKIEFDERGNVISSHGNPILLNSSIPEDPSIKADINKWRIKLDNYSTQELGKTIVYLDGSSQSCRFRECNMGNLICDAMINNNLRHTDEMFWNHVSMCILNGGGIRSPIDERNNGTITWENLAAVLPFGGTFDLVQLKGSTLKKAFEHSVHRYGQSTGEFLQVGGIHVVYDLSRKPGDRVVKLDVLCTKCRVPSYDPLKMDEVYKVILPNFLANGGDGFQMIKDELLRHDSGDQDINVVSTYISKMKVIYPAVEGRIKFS
# Assay explanation: inhibition of cell-surface CD73 enzyme activity; left panel
pIC50: −log10 of the molar value.
pIC50 listing for selected binders.
Measured property: pIC50

# Binder, Measured property, Number
data = [
    ("mAb002c-VH-QG/VK-SG (antibody, V domains shown) VH: QVQLQQPGAELVKPGASVRLSCKASGYTLTSYWMHWVKKRPGQGLEWIGEINPSQGRSNYNEKFKSKATLTVDRSSSTVYMQLGSLTSEDSAVYYCARRGVSGNYFDYWGQGTTLTVSS VL: DIKMTQSPSSMYASLGERVTMTCKASQDINTYLSWFQQKPGKSPKTLIYRSNILVSGVPSRFSGSRSGQDYYLTITSLEYEDMGIYYCLQYDEFPYTFGGGTKLELK", "pIC50", 9.35),
    ("Hu002c-2 (antibody, V domains shown) VH: QVQLVQSGAEVKKPGASVKVSCKASGYTLTSYWMHWVRQAPGQGLEWMGEINPSQGRSNYNEKFKSRVTMTRDTSTSTVYMELSSLRSEDTAVYYCARRGVSGNYFDYWGQGTLVTVSS VL: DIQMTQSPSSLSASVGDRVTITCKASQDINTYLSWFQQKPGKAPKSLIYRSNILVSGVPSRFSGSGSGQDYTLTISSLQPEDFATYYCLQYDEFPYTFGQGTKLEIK", "pIC50", 9.32),
    ("Hu002c-3 (antibody, V domains shown) VH: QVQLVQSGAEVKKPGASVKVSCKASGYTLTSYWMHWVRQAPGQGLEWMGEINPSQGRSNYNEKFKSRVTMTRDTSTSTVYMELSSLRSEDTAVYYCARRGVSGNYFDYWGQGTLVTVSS VL: DIQMTQSPSSLSASVGDRVTITCKASQDINTYLSWFQQKPGKSPKSLIYRSNILVSGVPSRFSGSGSGQDYTLTISSLQPEDFATYYCLQYDEFPYTFGGGTKLEIK", "pIC50", 9.27),
    ("mAb002c (antibody, V domains shown) VH: QVQLQQPGAELVKPGASVRLSCKASGYTLTSYWMHWVKKRPGQGLEWIGEINPSNGRSNYNEKFKSKATLTVDRSSSTVYMQLGSLTSEDSAVYYCARRGVSGNYFDYWGQGTTLTVSS VL: DIKMTQSPSSMYASLGERVTMTCKASQDINTYLSWFQQKPGKSPKTLIYRSNILVDGVPSRFSGSRSGQDYYLTITSLEYEDMGIYYCLQYDEFPYTFGGGTKLELK", "pIC50", 9.50),
    ("Hu002c-4 (antibody, V domains shown) VH: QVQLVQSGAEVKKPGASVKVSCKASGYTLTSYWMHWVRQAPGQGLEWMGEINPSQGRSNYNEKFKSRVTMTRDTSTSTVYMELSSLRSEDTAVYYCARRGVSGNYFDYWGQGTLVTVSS VL: DIQMTQSPSSLSASVGDRVTITCKASQDINTYLSWFQQKPGKSPKSLIYRSNILVSGVPSRFSGSGSGQDYTLTISSLQPEDFAIYYCLQYDEFPYTFGGGTKLEI", "pIC50", 9.48),
]

All figures here come from patent US20210024646A1.
